Exercise: state measured Degree of xylophagous damage in the pine tree block (0-5) for each of the compounds provided.
# Tested on: working termites and soldier termites (Coptotermes formosanus)
# Measurement Description: whole plant or invertebrate
# Format: in vivo
# Test Conditions: 1.6 ppm; after three weeks
Give the figure by itself; no unit, no explanation.

IN: Quick check: Degree of xylophagous damage in the pine tree block (0-5) on working termites and soldier termites (Coptotermes formosanus), item O=[N+]([O-])C=C1NCCN1Cc1ccc(Cl)nc1 [I.1] ?
OUT: 0

IN: Quick check: Degree of xylophagous damage in the pine tree block (0-5) on working termites and soldier termites (Coptotermes formosanus), item CCOP(=S)(OCC)O/N=C(\C#N)c1ccccc1 [A, reference compound] ?
OUT: 5

IN: Quick check: Degree of xylophagous damage in the pine tree block (0-5) on working termites and soldier termites (Coptotermes formosanus), item O=[N+]([O-])C=C1SCCN1Cc1ccc(Cl)nc1 [I.2] ?
OUT: 0

IN: Quick check: Degree of xylophagous damage in the pine tree block (0-5) on working termites and soldier termites (Coptotermes formosanus), item O=[N+]([O-])N=C1NCCN1Cc1ccc(Cl)nc1 [I.3] ?
OUT: 0

IN: Quick check: Degree of xylophagous damage in the pine tree block (0-5) on working termites and soldier termites (Coptotermes formosanus), item CCOP(=S)(OCC)Oc1nc(Cl)c(Cl)cc1Cl [B, reference compound] ?
OUT: 3

* * *

# Tested on: working termites and soldier termites (Coptotermes formosanus)
# Measurement Description: whole plant or invertebrate
# Format: in vivo
# Test Conditions: 0.32 ppm; after three weeks
Exercise: state measured Degree of xylophagous damage in the pine tree block (0-5) for each of the compounds provided.
Give the figure by itself; no unit, no explanation.

IN: I'd like to know its Degree of xylophagous damage in the pine tree block (0-5). The compound in question is O=[N+]([O-])N=C1NCCN1Cc1ccc(Cl)nc1
OUT: 0

IN: I'd like to know its Degree of xylophagous damage in the pine tree block (0-5). The compound in question is CCOP(=S)(OCC)Oc1nc(Cl)c(Cl)cc1Cl [B, reference compound]
OUT: 5

IN: I'd like to know its Degree of xylophagous damage in the pine tree block (0-5). The compound in question is O=[N+]([O-])C=C1NCCN1Cc1ccc(Cl)nc1
OUT: 0.5

IN: I'd like to know its Degree of xylophagous damage in the pine tree block (0-5). The compound in question is CCOP(=S)(OCC)O/N=C(\C#N)c1ccccc1 [A, reference compound]
OUT: 5

IN: I'd like to know its Degree of xylophagous damage in the pine tree block (0-5). The compound in question is O=[N+]([O-])C=C1SCCN1Cc1ccc(Cl)nc1
OUT: 0

* * *

# System: working termites and soldier termites (Coptotermes formosanus)
# Measurement Description: whole plant or invertebrate
# Format: in vivo
# Test Conditions: Coptotermes formosanus, read-out: Mortality termites after three weeks
Exercise: state measured mortality at 40 ppm for each of the compounds provided.
Entry rule: numbers only, all in %.

IN: I'd like to know its mortality at 40 ppm. The compound in question is O=[N+]([O-])C=C1SCCN1Cc1ccc(Cl)nc1
OUT: 100

IN: I'd like to know its mortality at 40 ppm. The compound in question is O=[N+]([O-])C=C1NCCN1Cc1ccc(Cl)nc1
OUT: 100

IN: I'd like to know its mortality at 40 ppm. The compound in question is O=[N+]([O-])N=C1NCCN1Cc1ccc(Cl)nc1
OUT: 100

IN: I'd like to know its mortality at 40 ppm. The compound in question is CCOP(=S)(OCC)O/N=C(\C#N)c1ccccc1 [A, reference compound]
OUT: 25

// provenance: patent US6936624B2
